Hello, the source for this data is ChEMBL document CHEMBL3085653, in case you need it.

Task for the reader: assign each of the following molecules its reported CC50.
# protocol summary: Cytotoxicity against human HuH7 cells
# Format: cell-based, Huh-7
Structures can show the parent of a compound that is named as a salt.

Summary for this molecule, `c1ccc(CNCCCCCNCc2ccccc2)cc1` : CC50 is 29 µM

Summary for this molecule, COc1cccc(CN2CCCN(Cc3ccccc3F)C2c2ccc(C(F)(F)F)cc2)c1 (configuration not stated) : CC50 is 23 µM

Summary for this molecule, `c1ccc(CN2CCCN(Cc3ccccc3)C2)cc1` : CC50 is > 50 µM

Summary for this molecule, `FC(F)(F)c1cccc(C2N(Cc3ccccc3)CCCN2Cc2ccccc2)c1` : CC50 is > 50 µM

Summary for this molecule, COc1ccc(CN2CCCC(CNc3ccc(OC)cc3)C2)cc1 (configuration not stated) : CC50 is > 50 µM

Summary for this molecule, `c1ccc(NCCCCNc2ccccc2)cc1` : CC50 is > 50 µM

Summary for this molecule, `c1ccc(CNCCCNCc2ccccc2)cc1` : CC50 is 27 µM

Summary for this molecule, `c1ccc(CNCCNCc2ccccc2)cc1` : CC50 is > 50 µM

Summary for this molecule, `O=C(NCCCNC(=O)c1ccccc1)c1ccccc1` : CC50 is > 50 µM

Summary for this molecule, `CC1N(Cc2ccccc2)CCN1Cc1ccccc1` : CC50 is > 50 µM

Summary for this molecule, CC(C(=O)NCCCNC(=O)C(C)c1ccccc1)c1ccccc1 (configuration not stated) : CC50 is > 50 µM

Summary for this molecule, `c1ccc(CNCCOCCNCc2ccccc2)cc1` : CC50 is 28 µM

Summary for this molecule, Fc1ccccc1CN1CCCN(Cc2ccccc2Cl)C1c1cccc(C(F)(F)F)c1 (configuration not stated) : CC50 is > 50 µM

Summary for this molecule, `COc1ccc(CNCCCCNCc2ccc(OC)cc2)cc1` : CC50 is 32 µM

Summary for this molecule, `CN(C)c1ccc(C2N(Cc3ccccc3)CCCN2Cc2ccccc2)cc1` : CC50 is > 50 µM

Summary for this molecule, `CN(C)c1ccc(CN2CCCN(Cc3ccc(N(C)C)cc3)C2c2ccncc2)cc1` : CC50 is 14 µM

Summary for this molecule, `COc1ccc(CN2CCCN(Cc3ccc(OC)cc3)C2c2ccncc2)cc1` : CC50 is 23 µM

Summary for this molecule, COc1cccc(CN2CCCN(Cc3ccccc3F)C2c2ccncc2)c1 (configuration not stated) : CC50 is > 50 µM

Summary for this molecule, `c1ccc(CN2CCCN(Cc3ccccc3)C2c2ccncc2)cc1` : CC50 is > 50 µM

Summary for this molecule, `COc1ccc(CN2CCCN(Cc3ccc(OC)cc3)C2c2cccc(C(F)(F)F)c2)cc1` : CC50 is 43 µM

Summary for this molecule, `COc1ccc(CN2CCCN(Cc3ccc(OC)cc3)C2c2ccc(N(C)C)cc2)cc1` : CC50 is 28 µM

Summary for this molecule, `COc1ccc(CN2CCCN(Cc3ccc(OC)cc3)C2c2ccc(C(F)(F)F)cc2)cc1` : CC50 is 34 µM

Summary for this molecule, `COc1ccc(CN2CCCN(Cc3ccc(OC)cc3)C2c2ccc(C#N)cc2)cc1` : CC50 is 20 µM

Summary for this molecule, `CN(C)c1ccc(CN2CCCN(Cc3ccc(N(C)C)cc3)C2c2ccc(C(F)(F)F)cc2)cc1` : CC50 is 23 µM

Summary for this molecule, `CN(C)c1ccc(CNCCCCNCc2ccc(N(C)C)cc2)cc1` : CC50 is 11 µM

Summary for this molecule, `COc1ccc(CN2CCCN(Cc3ccc(OC)cc3)C2c2ccc(C#N)c(F)c2)cc1` : CC50 is 29 µM

Summary for this molecule, `CN(C)c1ccc(C2N(Cc3ccccc3)CCN2Cc2ccccc2)cc1` : CC50 is > 50 µM

Summary for this molecule, `c1ccc(CCNCCCNCCc2ccccc2)cc1` : CC50 is 12 µM

Summary for this molecule, NCCCCN [PUTRESCINE DIHYDROCHLORIDE] : CC50 is > 50 µM

Summary for this molecule, NCCCCNCCCN [SPERMIDINE TRIHYDROCHLORIDE] : CC50 is > 50 µM

Summary for this molecule, `CN(C)c1ccc(CN2CCCN(Cc3ccc(N(C)C)cc3)C2c2ccc(F)cc2)cc1` : CC50 is 15 µM

Summary for this molecule, CC(CNCCCNCC(C)c1ccccc1)c1ccccc1 (configuration not stated) : CC50 is 18 µM

Summary for this molecule, `Cc1ccc(C2N(Cc3ccccc3)CCCN2Cc2ccccc2)o1` : CC50 is > 50 µM

Summary for this molecule, `O=C1N(Cc2ccccc2)CCCN1Cc1ccccc1` : CC50 is > 50 µM

Summary for this molecule, `COc1ccc(CN2CCCN(Cc3ccc(OC)cc3)C2c2ccc(F)cc2)cc1` : CC50 is 38 µM

Summary for this molecule, `CC1N(Cc2ccccc2)CCCN1Cc1ccccc1` : CC50 is > 50 µM

Summary for this molecule, `CN(C)c1ccc(CNCCCNCc2ccc(N(C)C)cc2)cc1` : CC50 is 17 µM

Summary for this molecule, `c1ccc(CN2CCN(Cc3ccccc3)C2c2ccncc2)cc1` : CC50 is > 50 µM

Summary for this molecule, NCCCNCCCCNCCCN [SPERMINE] : CC50 is > 50 µM

Summary for this molecule, `CC(=O)N(CCCCN(Cc1ccccc1)C(C)=O)Cc1ccccc1` : CC50 is > 50 µM

Summary for this molecule, COc1ccc(CNCC2CCCN(Cc3ccc(OC)cc3)C2)cc1 (configuration not stated) : CC50 is 34.5 µM

Summary for this molecule, `COc1ccc(CNCCCNCc2ccc(OC)cc2)cc1` : CC50 is 33 µM

----------
# Tested on: Hepatitis C virus
# protocol summary: Antiviral activity against HCV expressing GFP infected in human HuH7 cells assessed as inhibition of viral RNA replication after 72 hrs by Hoechst-33342 staining-based confocal microscopy
# Format: functional, organism-based, Hepacivirus hominis
# reported conditions: Huh-7, 72 h
test readout: EC50

Summary for this compound, `c1ccc(CN2CCCN(Cc3ccccc3)C2c2ccncc2)cc1` : EC50 is > 50 µM

----------
# protocol summary: Selectivity index, ratio of CC50 for human HuH7 cells to EC50 for cell culture derived HCV expressing NS5A-GFP fusion protein
# Set-up: species or system Huh-7
Task for the reader: assign each of the following compounds its reported Ratio CC50/EC50.
// response body must contain only the number

Summary for this compound, COc1cccc(CN2CCCN(Cc3ccccc3F)C2c2ccc(C(F)(F)F)cc2)c1 (stereo not given) : Ratio CC50/EC50 is 8.5

Summary for this compound, COc1ccc(CNCC2CCCN(Cc3ccc(OC)cc3)C2)cc1 (stereo not given) : Ratio CC50/EC50 is 31

Summary for this compound, `COc1ccc(CN2CCCN(Cc3ccc(OC)cc3)C2c2ccncc2)cc1` : Ratio CC50/EC50 is 15

Summary for this compound, `COc1ccc(CN2CCCN(Cc3ccc(OC)cc3)C2c2cccc(C(F)(F)F)c2)cc1` : Ratio CC50/EC50 is 13

----------
# protocol summary: Selectivity index, ratio of CC50 for human HuH7 cells to EC50 for cell culture derived HCV expressing NS5A-GFP fusion protein
# Set-up: species or system Huh-7
Please note: Condition met applies when Ratio CC50/EC50 is 20 or greater, and Condition not met applies otherwise.

Check the entry `CN(C)c1ccc(CNCCCCNCc2ccc(N(C)C)cc2)cc1` : does Ratio CC50/EC50 equal or exceed 20?
Condition met

Check the entry `CN(C)c1ccc(CN2CCCN(Cc3ccc(N(C)C)cc3)C2c2ccncc2)cc1` : does Ratio CC50/EC50 equal or exceed 20?
Condition not met

Check the entry `c1ccc(CCNCCCNCCc2ccccc2)cc1` : does Ratio CC50/EC50 equal or exceed 20?
Condition not met

Check the entry CC(CNCCCNCC(C)c1ccccc1)c1ccccc1 (stereo not drawn) : does Ratio CC50/EC50 equal or exceed 20?
Condition not met

Check the entry `COc1ccc(CN2CCCN(Cc3ccc(OC)cc3)C2c2ccc(C#N)cc2)cc1` : does Ratio CC50/EC50 equal or exceed 20?
Condition not met

Check the entry `CN(C)c1ccc(CN2CCCN(Cc3ccc(N(C)C)cc3)C2c2ccc(C(F)(F)F)cc2)cc1` : does Ratio CC50/EC50 equal or exceed 20?
Condition not met

Check the entry `COc1ccc(CNCCCNCc2ccc(OC)cc2)cc1` : does Ratio CC50/EC50 equal or exceed 20?
Condition met

Check the entry `COc1ccc(CN2CCCN(Cc3ccc(OC)cc3)C2c2ccc(N(C)C)cc2)cc1` : does Ratio CC50/EC50 equal or exceed 20?
Condition met

Check the entry `c1ccc(CNCCOCCNCc2ccccc2)cc1` : does Ratio CC50/EC50 equal or exceed 20?
Condition not met

Check the entry `CN(C)c1ccc(CN2CCCN(Cc3ccc(N(C)C)cc3)C2c2ccc(F)cc2)cc1` : does Ratio CC50/EC50 equal or exceed 20?
Condition not met

Check the entry `c1ccc(CNCCCCCNCc2ccccc2)cc1` : does Ratio CC50/EC50 equal or exceed 20?
Condition met

Check the entry `COc1ccc(CN2CCCN(Cc3ccc(OC)cc3)C2c2ccc(C#N)c(F)c2)cc1` : does Ratio CC50/EC50 equal or exceed 20?
Condition not met

Check the entry `COc1ccc(CNCCCCNCc2ccc(OC)cc2)cc1` : does Ratio CC50/EC50 equal or exceed 20?
Condition met

Check the entry `COc1ccc(CN2CCCN(Cc3ccc(OC)cc3)C2c2ccc(C(F)(F)F)cc2)cc1` : does Ratio CC50/EC50 equal or exceed 20?
Condition met

Check the entry `CN(C)c1ccc(CNCCCNCc2ccc(N(C)C)cc2)cc1` : does Ratio CC50/EC50 equal or exceed 20?
Condition not met

Check the entry `c1ccc(CNCCCNCc2ccccc2)cc1` : does Ratio CC50/EC50 equal or exceed 20?
Condition not met
